Test system: Giardia lamblia GS clone H7
Experiment: G. lamblia GS clone H7 trophozoite growth, ATP-based bioluminescence assay (BacTiter-Glo), 1,536-well
Type: cell-based
Settings: Giardia duodenalis, 48 h, read-out: 48-h Giardia GS clone H7 EC50
readoutType: EC50 (nM)
// return numeric value only (unit: nM, not printed)

-- ask For the record CS(=O)(=O)OCCN(CCBr)c1c(C(=O)NCCOP(=O)(O)O)cc([N+](=O)[O-])cc1[N+](=O)[O-] , what value of EC50 is listed for Giardia lamblia GS clone H7?
-- reply 1980

----------
Test: Mouse pharmacokinetics, oral gavage, plasma LC-MS/MS
Format: in vivo
Settings: plasma; mouse; single oral dose 50 mg/kg; read-out: average half-life (t1/2)
readoutType: half-life (h)
// return numeric value only (unit: h, not printed)

-- ask Looking for the measured half-life of C=CC(=O)N[C@@H]1CN(c2nc(Nc3cn(C)nc3OC)c3ncn(C)c3n2)C[C@H]1F , can you help?
-- reply 2.09

Where do the numbers come from? From paper PMC9295539.
